Tested on: CHIKV
Assay type: cell-based, chikungunya virus

Substance: Hs_EIF2B2_2 (CAACATCATTGAGGCGATTAA; chemistry not given here)
Score_si1: 2.1

Substance: Hs_DLD_3 (CAGGTGGAATTGCCCACTTAT; chemistry not given here)
Score_si1: 2.15

Substance: Hs_ZZZ3_1 (CAGCCTGATGGGAACACTAAA; chemistry not given here) [reference compound]
Score_si1: -2.9

Substance: s16837 (CAATGATCCAATCCACGAA; chemistry not given here)
Score_si1: 1.36

Substance: Hs_WIG1_1 (CAGCATTTAGAGAGCAAGCAA; chemistry not given here)
Score_si1: 2.55

Substance: Hs_TAZ_2 (sense CCGCCACATCTGGAACCTGAA; chemistry not given here)
Score_si1: 2.45

Substance: Hs_ADPRHL1_1 (CCCGACAATTATGATGCAGAA; chemistry not given here) [reference compound]
Score_si1: -2.15

Substance: Hs_P4HB_6 (AAGATGAACTGTAATACGCAA; chemistry not given here)
Score_si1: 1.38

Substance: Hs_TOR2A_2 (CACGGGTGGCGAGCAGATCAA; chemistry not given here)
Score_si1: 2.35

Substance: Hs_LBX1_2 (sense CAAGGCCGAGATGACTTCCAA; chemistry not given here)
Score_si1: 2

Substance: Hs_UBE2C_8 (GAGCCCTTGTATATTAAATAA; chemistry not given here) [reference compound]
Score_si1: -1.05

====

Tested on: CHIKV
Format: cell-based, chikungunya virus
Endpoint: Score_si4

Substance: s3625 (CAGTGAAGCTAGAATCTCA; chemistry not given here)
Measurement: 1.54
--
Substance: s28991 (GAAGAGGTTTTGGAGTATA; chemistry not given here)
Measurement: 0.22
--
Substance: s38698 (GGATTCTTGTTGGACTAAT; chemistry not given here)
Measurement: -0.7

====

System: CHIKV
Format: cell-based, chikungunya virus
Endpoint: Score_si3

Substance: s16633 (CAACCACAATGTTCGTAAA; chemistry not given here)
Assayed target: CHIKV
Measurement: 1.99

Substance: Hs_GNG13_4 (sense CCCACTCACTCCATCTTGTAA; chemistry not given here)
Assayed target: CHIKV
Measurement: 1.13

Substance: Hs_KRTCAP2_5 (sense CTCGCTCACTGCCTTCAATAA; chemistry not given here)
Assayed target: CHIKV
Measurement: 1.15

Substance: s5083 (sense CGTCGTCACTAACAGTCAA; chemistry not given here)
Assayed target: CHIKV
Measurement: 1.11

Substance: s20340 (sense CAGGCTATCTGAACACGGT; chemistry not given here)
Assayed target: CHIKV
Measurement: 1.49

====

Tested on: CHIKV
Type: cell-based, chikungunya virus

Substance: s15614 (sense GCAAGTCGTGAAACTATAA; chemistry not given here)
Score_si4: 0.64
--
Substance: Hs_IRAK1_5 (sense CCGGGCAATTCAGTTTCTACA; chemistry not given here)
Score_si4: 1.36
--
Substance: s32491 (GCCTGTATATGAGAGCCTT; chemistry not given here)
Score_si4: 0.05
--
Substance: Hs_CALM2_5 (ACAAAGGAATTGGGAACTGTA; chemistry not given here)
Score_si4: 0.05
--
Substance: s16045 (GGTTTATCCACGGTAAAGA; chemistry not given here) [reference compound]
Score_si4: -0.44
--
Substance: Hs_ATP6AP2_2 (AAGAGTGTATATGGTAGGGAA; chemistry not given here)
Score_si4: 0.62
--
Substance: s12245 (sense CCATCAGGACCACTATTAA; chemistry not given here)
Score_si4: 0.57
--
Substance: Hs_GNB2L1_5 (sense TTGGCACACGCTAGAAGTTTA; chemistry not given here)
Score_si4: 1.27
--
Substance: s2822 (sense TGCTGACTTTTAACCCACA; chemistry not given here)
Score_si4: 1
--
Substance: s5032 (sense GGAGCGTATCTGTGAGAAA; chemistry not given here)
Score_si4: 1.56
--
Substance: s21554 (sense CAGTATTGGTTATGAGTCT; chemistry not given here)
Score_si4: 0.67
--
Substance: Hs_GSTP1_3 (sense TCCTTTCTCCAGGACCAATAA; chemistry not given here)
Score_si4: -0.14
--
Substance: s38817 (GCAAATCTCTCTATCCTTA; chemistry not given here)
Score_si4: 0.06
--
Substance: Hs_NPEPL1_1 (CTGATTTATAGGGCAAGAGAA; chemistry not given here)
Score_si4: 1.11
--
Substance: s25486 (sense GGTCTACAATCGGATGACA; chemistry not given here)
Score_si4: 1.05
--
Substance: Hs_PEX19_3 (CCCATTCAAGATTGTGCCATA; chemistry not given here)
Score_si4: 0.41
--
Substance: s10394 (GCTTTATGCTGCTAAGGCA; chemistry not given here)
Score_si4: 1.23
--
Substance: Hs_RORC_3 (sense CCGGGCCTACAATGCTGACAA; chemistry not given here)
Score_si4: 0.9
--
Substance: Hs_MAP2K2_9 (TTCCAGGAGTTTGTCAATAAA; chemistry not given here)
Score_si4: 0.51
--
Substance: s20630 (sense GCAAGCTGCTGATCGAGTT; chemistry not given here)
Score_si4: 0.85
--
Substance: Hs_RAB3D_3 (sense CTGGAACTATGGACCACATTA; chemistry not given here)
Score_si4: 0.77
--
Substance: s25038 (sense GGTCTTTACTAGGTGTATT; chemistry not given here) [reference compound]
Score_si4: -0.18
--
Substance: Hs_PITRM1_2 (CCGGTGAATTACGTGGGTGAA; chemistry not given here) [reference compound]
Score_si4: -0.68
--
Substance: Hs_GBF1_1 (sense AAGAATATTTACATCATTCAA; chemistry not given here)
Score_si4: 1.75
--
Substance: Hs_GNG13_3 (sense CCCACTCACAACATCTTGTAA; chemistry not given here)
Score_si4: 0.93
--
Substance: s6350 (sense GCCCATATACATTCTGCAA; chemistry not given here) [reference compound]
Score_si4: -0.73
--
Substance: s18269 (CCATTGCGGAGATCAAGAA; chemistry not given here)
Score_si4: 0.18
--
Substance: Hs_ROCK1_1 (sense ACGGTTAGAACAAGAGGTAAA; chemistry not given here)
Score_si4: 0.5
--
Substance: s18706 (sense GAATCTGAACGAACGATAT; chemistry not given here) [reference compound]
Score_si4: -0.67
--
Substance: Hs_TGIF_4 (sense TACCACTGTGACTGCATTGAA; chemistry not given here)
Score_si4: 0.65
--
Substance: s3146 (GACCATGGATAATAAGAAA; chemistry not given here)
Score_si4: -0.15
--
Substance: s195643 (sense CCCTAGGCGCTGGATTTTG; chemistry not given here)
Score_si4: 0.23
--
Substance: s1907 (sense GAACTTAGCTAAATTGACT; chemistry not given here)
Score_si4: 0.58
--
Substance: s30606 (CAGTGATGGTGATTCAGAT; chemistry not given here)
Score_si4: 0.49

====

Data export: pIC50 values recorded with CLK1 (Homo sapiens, UniProt P49759).
Sequence (P49759 whole entry): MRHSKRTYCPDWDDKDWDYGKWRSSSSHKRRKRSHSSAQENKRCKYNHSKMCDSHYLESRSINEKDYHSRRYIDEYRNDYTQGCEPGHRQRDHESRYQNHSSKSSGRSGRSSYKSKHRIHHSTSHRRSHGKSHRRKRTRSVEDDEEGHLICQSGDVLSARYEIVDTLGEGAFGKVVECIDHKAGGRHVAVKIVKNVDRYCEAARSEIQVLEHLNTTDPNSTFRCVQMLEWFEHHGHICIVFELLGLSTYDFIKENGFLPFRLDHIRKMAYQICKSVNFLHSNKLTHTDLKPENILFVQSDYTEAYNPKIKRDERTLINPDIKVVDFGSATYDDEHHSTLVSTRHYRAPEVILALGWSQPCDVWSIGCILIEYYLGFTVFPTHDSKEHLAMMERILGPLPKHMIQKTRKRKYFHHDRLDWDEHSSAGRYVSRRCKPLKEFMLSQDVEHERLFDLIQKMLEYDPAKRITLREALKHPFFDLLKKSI
pIC50: −log10 of the molar value.
Endpoint: pIC50

Record smiles: COc1ccc2c(c1)[nH]c1c(/C=C/c3ccccc3)nccc12
Endpoint: pIC50
Measurement: 6.24
--
Record smiles: CCCCn1c2cc(OC)c(Cl)cc2c2ccnc(C)c21
Endpoint: pIC50
Measurement: 5.30
--
Record smiles: C#CCn1c2c(Br)nccc2c2ccc(Cl)c(Cl)c21
Endpoint: pIC50
Measurement: 6.06

====

Tested on: CHIKV
Assay type: cell-based, chikungunya virus
The entries below come with measured Score_si3 values attached.

Substance: Hs_PCQAP_10 (CAGCATCTAATTAAATTGCAT; chemistry not given here) [reference compound]
Assayed target: CHIKV
Score_si3: -0.74
--
Substance: Hs_PTPN4_3 (sense AGCACGTACCTTAGAACTCTA; chemistry not given here)
Assayed target: CHIKV
Score_si3: 1.47
--
Substance: Hs_RRBP1_4 (sense AAGAGATTGTAGAGAAGCTAA; chemistry not given here)
Assayed target: CHIKV
Score_si3: 1.79
--
Substance: Hs_CDK4_3 (sense ACCCTGGTGTTTGAGCATGTA; chemistry not given here)
Assayed target: CHIKV
Score_si3: 1.02
--
Substance: Hs_PPP1R15A_3 (CAGGATCAGCCGAGGATGAAA; chemistry not given here)
Assayed target: CHIKV
Score_si3: 1.25
--
Substance: Hs_YEATS4_3 (AAAGGGTGTTACTATCGTTAA; chemistry not given here)
Assayed target: CHIKV
Score_si3: 0.92
--
Substance: s18077 (CCTGTTCATTGATCGAACA; chemistry not given here) [reference compound]
Assayed target: CHIKV
Score_si3: -0.59
--
Substance: s9339 (TCACTTCTAGTTTTACTTT; chemistry not given here) [reference compound]
Assayed target: CHIKV
Score_si3: -0.69
--
Substance: s18704 (sense GCAGATTATTTGCAAGCGA; chemistry not given here) [reference compound]
Assayed target: CHIKV
Score_si3: -0.73
--
Substance: Hs_SCLY_1 (sense CTGACTCAGCTTATACCTTAA; chemistry not given here)
Assayed target: CHIKV
Score_si3: 1.21
--
Substance: Hs_AQP3_2 (CTGGATGTACATACATAAGTA; chemistry not given here)
Assayed target: CHIKV
Score_si3: 1.09
--
Substance: s2665 (sense GCTTCAGGATGTGCCCAAA; chemistry not given here)
Assayed target: CHIKV
Score_si3: 0.58
--
Substance: s10096 (GGTGTAAGATCAAAGAGAT; chemistry not given here)
Assayed target: CHIKV
Score_si3: 1.3
--
Substance: s33487 (GGTTATCAATGACGAGCAA; chemistry not given here)
Assayed target: CHIKV
Score_si3: 1.7
--
Substance: s28992 (GAGCAACTCTGGTCGTGTA; chemistry not given here)
Assayed target: CHIKV
Score_si3: 0.46
--
Substance: s31192 (GGAAGGACTTACTACTACA; chemistry not given here)
Assayed target: CHIKV
Score_si3: 1.79
--
Substance: s24924 (sense CAGTCGTCCTCAGATGATA; chemistry not given here) [reference compound]
Assayed target: CHIKV
Score_si3: -0.67
--
Substance: Hs_LBX1_1 (sense CACCAGATCTATGAATTGGAA; chemistry not given here)
Assayed target: CHIKV
Score_si3: 1.41
--
Substance: s17591 (CGATATGAACCTGACAGTA; chemistry not given here) [reference compound]
Assayed target: CHIKV
Score_si3: -0.15
--
Substance: s3112 (GGATGAGATTCTAGACTTT; chemistry not given here)
Assayed target: CHIKV
Score_si3: 1.86
--
Substance: s27641 (sense GGGAAACAGTTGGAAGAGA; chemistry not given here)
Assayed target: CHIKV
Score_si3: 1.64
--
Substance: s5296 (sense GCTTCACCATCGAATCCAA; chemistry not given here)
Assayed target: CHIKV
Score_si3: 1.01
--
Substance: Hs_ITGB4BP_1 (sense CTGGATCTATCATTACTGCAA; chemistry not given here)
Assayed target: CHIKV
Score_si3: 1.14
--
Substance: Hs_UBE2C_4 (CAGGACCATTCTGCTCTCCAT; chemistry not given here) [reference compound]
Assayed target: CHIKV
Score_si3: -0.75
--
Substance: Hs_PPP1R8_8 (AACCCTGAAGCTGTAAATGAA; chemistry not given here)
Assayed target: CHIKV
Score_si3: 0.62
--
Substance: Hs_MAP3K14_6 (TACCTAGTGCATGCTCTGCAA; chemistry not given here)
Assayed target: CHIKV
Score_si3: 1.59
--
Substance: s29269 (CAGTTTACCGAGGAAGAAA; chemistry not given here)
Assayed target: CHIKV
Score_si3: 1.26
--
Substance: Hs_DKFZP434B168_1 (CTGAAATTACTTGCTAATAAA; chemistry not given here)
Assayed target: CHIKV
Score_si3: 1.61
--
Substance: Hs_FTSJ2_2 (sense CAGAATGTAAGGATCATCAAA; chemistry not given here)
Assayed target: CHIKV
Score_si3: 1.86
--
Substance: Hs_CAMKK2_4 (sense ACAGAAAGGGCTTGAAATTTA; chemistry not given here)
Assayed target: CHIKV
Score_si3: 1.25
--
Substance: s13805 (sense TCACTGTGCTGATCGGGAA; chemistry not given here)
Assayed target: CHIKV
Score_si3: 0.78
--
Substance: s10395 (sense GGACGACTTCTTTAAGTCA; chemistry not given here)
Assayed target: CHIKV
Score_si3: 1.58
--
Substance: Hs_CLK1_2 (sense AACGTGATGAACGCACCTTAA; chemistry not given here)
Assayed target: CHIKV
Score_si3: 1.36
--
Substance: s81 (sense GGATGATTTAGAATTGTCA; chemistry not given here)
Assayed target: CHIKV
Score_si3: 2.08
--
Substance: s9324 (ACAACTTCAGTGCTGATCA; chemistry not given here)
Assayed target: CHIKV
Score_si3: 0.83
--
Substance: Hs_GUCY1B3_3 (sense CAAGACTTTCTTCTAGATATA; chemistry not given here) [reference compound]
Assayed target: CHIKV
Score_si3: -0.83
